Biological target: JMJD6^FL
Test: CPMG-edited NMR titration, apparent binding constant of 2OG
Conditions: CPMG-edited 1H NMR (700 MHz), 20 μM 2OG, 200 μM Zn(II), Tris-d11 pH 7.5, titrated with EDTA-treated JMJD6; mean ± S.D. (n = 3); read-out: 2OG KD^app
Method: 20 μM 2OG and 200 μM Zn(II) were mixed in deuterated Tris-d11, pH 7.5, and the ^1H NMR signals for 2OG were recorded at 700 MHz ([39]). […] Typically, a 5–10% error was allowed in the curve-fitting process. CPMG displacement experiments used a Bruker AV700 NMR machine, as reported previously ([39]). The PROJECT (Periodic Refocusing of J Evolution by Coherence Transfer)-CPMG sequence (90°x − (τ − 180°y − τ − 90°y − τ − 180°y − τ)n − acquisition) was applied ([56]). […]

Compound: O=C(O)CCC(=O)C(=O)O [Peptide 2OG, 2-oxoglutarate]
Kd: 2.3 µM

----------
Target: JMJD6^Δ363–403 (Homo sapiens)
Assay: Standard MS-based hydroxylation assay (MALDI-TOF MS) of substrate peptides
Assay type: biochemical
Parameters: two more variants (aa 1–362, JMJD6^Δ363–403, and aa 1–343, JMJD6^Δ344–403); His6 (N); made in house; host or cells: Escherichia coli Rosetta2(DE3)
Settings: standard hydroxylation assay conditions, substrate peptide varied 0–400 μM
// label = true if kcat/Km^app is not less than 200 M⁻¹ s⁻¹, otherwise false

Macromolecule sequence: DRKSYKHRSKSRDR [CROP357–370, fragment of SR protein CROP/LUC7L3]
Class name: false
//
Macromolecule sequence: RDRRRRSKPLTRGAK [U2AF65_55–70, fragment of U2AF65]
Class name: false
//
Macromolecule sequence: SRRRSRSKSPFR [RBM39_121–132, fragment of RBM39]
Class name: true
//
Macromolecule sequence: SRSRSRDRKRRSRSRDR [U2AF65_30–46, fragment of the RS region of U2AF65]
Class name: false
//
Macromolecule sequence: SKSRSRSHERKRS [RBM39_38–50, fragment of RBM39]
Class name: true
//
Macromolecule sequence: RSKKRKKSKSRS [RBM39_31–42]
Class name: true
//
Macromolecule sequence: RKRSRSKERRRS [RBM39_71–82, fragment of RBM39]
Class name: true
//
Macromolecule sequence: RSPKRKLSRSPSPR [SRSF11_358–372, fragment of SRSF11]
Class name: true
//
Macromolecule sequence: NPKRSRSREHRR [LUC7L2_267–278, reported JMJD6 substrate, fragment of SR protein LUC7L2, reference compound]
Class name: true
//
Macromolecule sequence: SRDHKRSRSRERRRS [CROP311–325, fragment of SR protein CROP/LUC7L3]
Class name: true
//
Macromolecule sequence: RSRSGTRSPKKPSR [SRSF11_347–360, fragment of SRSF11]
Class name: false
//
Macromolecule sequence: ENRHRKRSHSRSRSR [U2AF65_21–35, fragment of the RS region of U2AF65]
Class name: false
//
Macromolecule sequence: RKHRSRSRDRRRSKS [CROP341–355, fragment of SR protein CROP/LUC7L3]
Class name: true

----------
Molecular target: JMJD6^Δ363–403 (Homo sapiens, UniProt Q6NYC1)
Assay: Standard MS-based hydroxylation assay (MALDI-TOF MS) of substrate peptides
Type: biochemical
Set-up: two more variants (aa 1–362, JMJD6^Δ363–403, and aa 1–343, JMJD6^Δ344–403); His6 (N); made in house; host or cells: Escherichia coli Rosetta2(DE3)
Details: 10 μM JMJD6^Δ363–403, 100 μM peptide, 100 μM Fe(II), 400 μM ascorbate, 500 μM 2OG, 50 mM HEPES-KOH pH 8.0, 37 °C, 30 min, MALDI-TOF MS; mean ± S.D. (n = 3)
Measured Hydroxylation accompanies every entry in the list below.

Macromolecule sequence: RKHRSRSRDRRRSKS [CROP341–355, fragment of SR protein CROP/LUC7L3]
Units label: %
Hydroxylation: 92.7
//
Macromolecule sequence: SRSRSRDRKRRSRSRDR [U2AF65_30–46, fragment of the RS region of U2AF65]
Units label: %
Hydroxylation: 72.4
//
Macromolecule sequence: RSKKRKKSKSRS [RBM39_31–42]
Units label: %
Hydroxylation: 99.0
//
Macromolecule sequence: RSKSPRRRRSHSR [SRSF11_286–298, fragment of SRSF11]
Units label: %
Hydroxylation: 90.5
//
Macromolecule sequence: DRKSYKHRSKSRDR [CROP357–370, fragment of SR protein CROP/LUC7L3]
Units label: %
Hydroxylation: 88.7
//
Macromolecule sequence: SRRRSRSKSPFR [RBM39_121–132, fragment of RBM39]
Units label: %
Hydroxylation: 82.5
//
Macromolecule sequence: ERGRRSRSTSKT [SRSF11_299–310, fragment of SRSF11]
Units label: %
Hydroxylation: 6.40
//
Macromolecule sequence: ENRHRKRSHSRSRSR [U2AF65_21–35, fragment of the RS region of U2AF65]
Units label: %
Hydroxylation: 74.7
//
Macromolecule sequence: KSKERKRSRDRE [RBM39_51–62, fragment of RBM39]
Units label: %
Hydroxylation: 37.0
